Entry source: the supplement of paper PMC4862054

Tested on: Hs578T
MEASUREMENT_DESCRIPTION: normalised response (% of control), CellTiter-Glo; higher = more viable cells (100 = DMSO, 0 = benzethonium chloride kill control)
REPORTED_CONDITIONS: incubation time: 72 h
MEASURED_PROPERTY: normalised response (%)

COMPOUND	MEASURED_PROPERTY	UNIT_OF_MEASUREMENT	MEASURED_RESULT
CCCCCCCCCCCCCCCCCCOP(=O)([O-])OC1CC[N+](C)(C)CC1 [Perifosine] (250 nM)	normalised response	%	104
CN[C@@H]1C[C@H]2O[C@@](C)([C@@H]1OC)n1c3ccccc3c3c4c(c5c6ccccc6n2c5c31)C(=O)N[C@H]4O [UCN-01] (1 nM)	normalised response	%	98
CCC1(c2ccc(N)cc2)CCC(=O)NC1=O (stereo unspecified) [Aminoglutethimide] (10 nM)	normalised response	%	97.3
O=C(O)c1ccc(-c2c[nH]c3ncc(-c4ccccc4)cc23)cc1C1CCCC1 (10 nM)	normalised response	%	99.6
CCC1=C[C@@H]2CN(C1)Cc1c([nH]c3ccccc13)[C@@](C(=O)OC)(c1cc3c(cc1OC)N(C)[C@H]1[C@@](O)(C(=O)OC)[C@H](OC(C)=O)[C@]4(CC)C=CCN5CC[C@]31[C@@H]54)C2 [Vinorelbine] (1000 nM)	normalised response	%	35.5
O=C(CCCCCCC(=O)Nc1ccc([C@H]2O[C@@H](CSc3nc(-c4ccccc4)c(-c4ccccc4)o3)C[C@@H](c3ccc(CO)cc3)O2)cc1)NO [Tubacin] (1 nM)	normalised response	%	100
